pIC50 tested on Lysine-specific demethylase 7A (Homo sapiens, UniProt Q6ZMT4): recorded values
Sequence (Q6ZMT4 whole entry): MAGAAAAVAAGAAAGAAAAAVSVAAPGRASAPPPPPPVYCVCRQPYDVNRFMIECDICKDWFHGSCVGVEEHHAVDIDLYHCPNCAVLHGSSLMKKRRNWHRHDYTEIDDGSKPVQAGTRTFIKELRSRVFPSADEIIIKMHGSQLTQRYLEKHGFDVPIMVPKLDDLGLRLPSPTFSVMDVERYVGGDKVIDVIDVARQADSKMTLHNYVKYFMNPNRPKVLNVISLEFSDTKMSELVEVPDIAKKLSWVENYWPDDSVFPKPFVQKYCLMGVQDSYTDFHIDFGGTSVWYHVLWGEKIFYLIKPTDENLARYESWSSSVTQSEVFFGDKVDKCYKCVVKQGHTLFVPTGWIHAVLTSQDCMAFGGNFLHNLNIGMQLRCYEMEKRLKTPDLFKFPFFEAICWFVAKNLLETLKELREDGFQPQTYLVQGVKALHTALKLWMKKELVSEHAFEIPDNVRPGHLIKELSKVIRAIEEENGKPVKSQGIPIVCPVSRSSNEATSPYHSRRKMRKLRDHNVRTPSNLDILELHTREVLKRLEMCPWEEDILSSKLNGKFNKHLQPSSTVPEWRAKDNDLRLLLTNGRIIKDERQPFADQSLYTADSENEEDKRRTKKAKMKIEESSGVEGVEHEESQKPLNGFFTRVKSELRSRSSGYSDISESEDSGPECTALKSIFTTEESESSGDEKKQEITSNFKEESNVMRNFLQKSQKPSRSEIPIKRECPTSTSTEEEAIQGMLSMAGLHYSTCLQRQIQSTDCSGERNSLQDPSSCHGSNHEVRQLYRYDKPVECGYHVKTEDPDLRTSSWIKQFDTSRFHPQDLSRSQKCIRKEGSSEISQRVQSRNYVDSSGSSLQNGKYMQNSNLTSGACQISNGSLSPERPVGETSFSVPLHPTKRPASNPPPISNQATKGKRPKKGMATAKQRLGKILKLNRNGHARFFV
In plain terms, pIC50 is the concentration in mol/L turned into minus its base-10 logarithm.

>  <smi>
O=C(O)CCN(O)C(=O)CCCCCCCCC1CC1

>  <pIC50>
6.70

$$$$

In plain terms, "O=C(O)c1ccnc(C(=O)O)c1" has a documented pIC50 of 4.82

====

assay: Growth inhibition of human KYSE-150 cells after 48 hrs by MTT assay; assay type: functional; conditions: KYSE-150, 48 h
value-type: GI50

>  <molecule>
CN(C)CCCCCCCCC(=O)N(O)CCC(=O)O

>  <reading>
> 470 µM

$$$$
>  <molecule>
O=C(O)CCN(O)C(=O)CCCCCCCCC1CC1

>  <reading>
16 µM

$$$$
>  <molecule>
O=C(O)c1ccnc(C(=O)O)c1

>  <reading>
> 240 µM

$$$$

Read the next record carefully.
In plain terms, O=C(O)CNC(=O)C(=O)O [N-OXALYLGLYCINE] has a documented GI50 of > 240 µM

====

biological target: UniProt:Q9UPP1; assay: Inhibition of KDM7B (unknown origin) using H3K4me3K9me2 and 2-oxoglutarate as substrate after 1 hr by matrix-assisted laser desorption ionization time of flight mass spectrometry
Sequence (Q9UPP1 whole entry): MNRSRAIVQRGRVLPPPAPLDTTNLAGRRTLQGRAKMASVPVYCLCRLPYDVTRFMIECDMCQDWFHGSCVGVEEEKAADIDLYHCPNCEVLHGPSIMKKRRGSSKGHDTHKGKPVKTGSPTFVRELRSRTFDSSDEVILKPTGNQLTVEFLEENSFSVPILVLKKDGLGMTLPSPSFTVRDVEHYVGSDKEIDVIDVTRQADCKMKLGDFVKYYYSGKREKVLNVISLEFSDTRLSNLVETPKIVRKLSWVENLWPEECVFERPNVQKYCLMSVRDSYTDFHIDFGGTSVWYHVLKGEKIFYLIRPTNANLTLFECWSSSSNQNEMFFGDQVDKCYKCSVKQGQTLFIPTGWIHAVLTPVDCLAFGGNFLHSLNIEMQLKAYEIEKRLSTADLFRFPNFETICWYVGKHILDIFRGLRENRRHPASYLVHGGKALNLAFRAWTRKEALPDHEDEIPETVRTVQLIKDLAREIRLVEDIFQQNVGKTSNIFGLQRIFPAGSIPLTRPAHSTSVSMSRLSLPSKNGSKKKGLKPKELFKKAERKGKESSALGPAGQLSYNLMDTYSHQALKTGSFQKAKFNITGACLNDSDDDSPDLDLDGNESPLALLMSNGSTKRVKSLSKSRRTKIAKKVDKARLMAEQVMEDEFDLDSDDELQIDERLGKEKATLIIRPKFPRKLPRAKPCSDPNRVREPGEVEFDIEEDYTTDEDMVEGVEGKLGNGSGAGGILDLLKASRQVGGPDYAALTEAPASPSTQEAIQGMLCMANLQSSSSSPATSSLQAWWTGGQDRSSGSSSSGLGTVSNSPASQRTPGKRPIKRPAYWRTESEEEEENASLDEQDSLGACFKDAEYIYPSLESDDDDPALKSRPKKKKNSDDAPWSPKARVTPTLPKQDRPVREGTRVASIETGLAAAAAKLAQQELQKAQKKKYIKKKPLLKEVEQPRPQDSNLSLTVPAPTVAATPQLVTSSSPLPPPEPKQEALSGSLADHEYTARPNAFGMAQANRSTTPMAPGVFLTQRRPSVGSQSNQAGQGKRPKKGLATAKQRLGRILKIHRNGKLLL
value-type: pIC50
In plain terms, pIC50 is the concentration in mol/L turned into minus its base-10 logarithm.

In plain terms, "CC(C)CCCCCCCCC(=O)N(O)CCC(=O)O" has a documented pIC50 of 4.62

In plain terms, "CN(C)CCCCCCCCC(=O)N(O)CCC(=O)O" has a documented pIC50 of 4.72

In plain terms, "O=C(O)CCN(O)C(=O)CCCCCCCCC1CC1" has a documented pIC50 of 5.92

====

Molecular target: Lysine-specific demethylase 4C (Homo sapiens)
Sequence (Q9H3R0 whole entry): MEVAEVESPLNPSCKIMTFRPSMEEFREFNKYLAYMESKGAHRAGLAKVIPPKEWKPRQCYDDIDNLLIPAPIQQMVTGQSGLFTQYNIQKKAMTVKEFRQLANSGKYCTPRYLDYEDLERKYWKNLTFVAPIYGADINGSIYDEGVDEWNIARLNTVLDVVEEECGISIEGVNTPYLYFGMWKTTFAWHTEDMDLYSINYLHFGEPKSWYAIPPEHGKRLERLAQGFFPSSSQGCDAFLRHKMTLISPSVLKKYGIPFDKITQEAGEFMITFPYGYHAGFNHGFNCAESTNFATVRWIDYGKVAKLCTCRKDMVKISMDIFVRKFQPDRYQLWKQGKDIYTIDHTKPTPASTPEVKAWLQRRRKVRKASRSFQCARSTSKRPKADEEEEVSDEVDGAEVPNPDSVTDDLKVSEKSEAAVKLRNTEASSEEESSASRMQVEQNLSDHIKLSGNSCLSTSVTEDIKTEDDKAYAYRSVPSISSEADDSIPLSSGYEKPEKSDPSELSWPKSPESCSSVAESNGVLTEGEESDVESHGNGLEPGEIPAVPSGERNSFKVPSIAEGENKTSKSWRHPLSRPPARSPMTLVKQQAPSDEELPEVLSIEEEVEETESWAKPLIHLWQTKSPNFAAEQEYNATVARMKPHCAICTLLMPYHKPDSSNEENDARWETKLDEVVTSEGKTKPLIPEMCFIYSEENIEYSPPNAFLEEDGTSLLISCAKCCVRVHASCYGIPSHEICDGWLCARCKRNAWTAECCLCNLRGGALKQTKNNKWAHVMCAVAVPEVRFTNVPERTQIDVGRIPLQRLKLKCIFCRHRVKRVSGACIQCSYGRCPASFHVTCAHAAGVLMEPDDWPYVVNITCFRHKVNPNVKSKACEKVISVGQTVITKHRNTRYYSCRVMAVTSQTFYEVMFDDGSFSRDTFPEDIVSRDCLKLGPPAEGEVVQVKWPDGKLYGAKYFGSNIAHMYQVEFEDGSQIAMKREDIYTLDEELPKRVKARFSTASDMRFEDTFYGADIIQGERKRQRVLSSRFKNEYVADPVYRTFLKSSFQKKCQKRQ
IC50 reference

>  <smi>
O=C(O)CCN(O)C(=O)CCCCCCCCc1ccccc1

>  <assay-system>
Lysine-specific demethylase 4C (Homo sapiens)

>  <IC50>
22 µM

$$$$

Noted IC50 for "O=C(O)CCN(O)C(=O)CCCCCCCCC1CCCCC1" , tested on Lysine-specific demethylase 4C (Homo sapiens): 81 µM

Noted IC50 for "O=C(O)CNC(=O)C(=O)O" , tested on Lysine-specific demethylase 4C (Homo sapiens): > 250 µM

Noted IC50 for "CN(C)CCCCCCCCC(=O)N(O)CCC(=O)O" , tested on Lysine-specific demethylase 4C (Homo sapiens): 2.2 µM

Noted IC50 for "CCCCCCCCCC(=O)N(O)CCC(=O)O" , tested on Lysine-specific demethylase 4C (Homo sapiens): 32 µM

The reported measurements were obtained from ChEMBL document CHEMBL2424657.
